Could you please report measured pKb for the items listed next?
- assay system: UniProtKB P16610
- Sequence (P16610 whole entry): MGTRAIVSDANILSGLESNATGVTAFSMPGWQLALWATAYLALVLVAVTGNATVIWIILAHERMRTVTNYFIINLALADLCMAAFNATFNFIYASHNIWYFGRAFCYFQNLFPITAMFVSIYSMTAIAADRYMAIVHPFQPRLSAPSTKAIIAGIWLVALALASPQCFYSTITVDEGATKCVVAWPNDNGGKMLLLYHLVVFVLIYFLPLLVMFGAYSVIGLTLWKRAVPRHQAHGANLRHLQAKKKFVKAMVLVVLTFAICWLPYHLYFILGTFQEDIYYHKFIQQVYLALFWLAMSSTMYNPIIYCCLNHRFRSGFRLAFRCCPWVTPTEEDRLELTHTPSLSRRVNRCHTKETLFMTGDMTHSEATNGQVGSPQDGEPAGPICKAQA
- assay name: Antagonist activity at NK2 receptor in rat urinary bladder assessed as effect on beta-Ala8]NKA(4-10)-induced mechanical activity
- Format: functional
- condition parameters: filed as antagonist
Answers are plain numbers.

Some entries whose results are on file:
CS(=O)(=O)N1CCN([C@@H]2CC(=O)N[C@@H](Cc3c[nH]c4ccccc34)C(=O)N[C@@H](Cc3ccccc3)C(=O)N[C@H](Cc3ccccc3)CNC2=O)CC1; 9.3
O=C1C[C@@H](NC2CCSCC2)C(=O)NC[C@@H](Cc2ccccc2)NC(=O)[C@H](Cc2ccccc2)NC(=O)[C@H](Cc2c[nH]c3ccccc23)N1; 7.8
O=C1C[C@@H](NC(=O)CN2CCC(O)CC2)C(=O)NC[C@@H](Cc2ccccc2)NC(=O)[C@H](Cc2ccccc2)NC(=O)[C@H](Cc2c[nH]c3ccccc23)N1; 9.1
CC(=O)N[C@@H]1[C@@H](O)[C@H](O)[C@@H](CO)O[C@H]1NC(=O)C[C@H](NC(C)=O)C(=O)N[C@@H]1CC(=O)N[C@@H](Cc2c[nH]c3ccccc23)C(=O)N[C@@H](Cc2ccccc2)C(=O)N[C@H](Cc2ccccc2)CNC1=O; 7.7
O=C1C[C@@H](NC(=O)CN2CCC(N3CC[S+]([O-])CC3)CC2)C(=O)NC[C@@H](Cc2ccccc2)NC(=O)[C@H](Cc2ccccc2)NC(=O)[C@H](Cc2c[nH]c3ccccc23)N1; 9

Now take the following compound into account.
Problem: # input compound: `N[C@H]1CC(=O)N[C@@H](Cc2c[nH]c3ccccc23)C(=O)N[C@@H](Cc2ccccc2)C(=O)N[C@H](Cc2ccc(Cl)c(Cl)c2)CNC1=O` ; wanted: its pKb
Solution: 8.9

###

- assay system: Substance-K receptor (Homo sapiens)
- Sequence (P21452 whole entry): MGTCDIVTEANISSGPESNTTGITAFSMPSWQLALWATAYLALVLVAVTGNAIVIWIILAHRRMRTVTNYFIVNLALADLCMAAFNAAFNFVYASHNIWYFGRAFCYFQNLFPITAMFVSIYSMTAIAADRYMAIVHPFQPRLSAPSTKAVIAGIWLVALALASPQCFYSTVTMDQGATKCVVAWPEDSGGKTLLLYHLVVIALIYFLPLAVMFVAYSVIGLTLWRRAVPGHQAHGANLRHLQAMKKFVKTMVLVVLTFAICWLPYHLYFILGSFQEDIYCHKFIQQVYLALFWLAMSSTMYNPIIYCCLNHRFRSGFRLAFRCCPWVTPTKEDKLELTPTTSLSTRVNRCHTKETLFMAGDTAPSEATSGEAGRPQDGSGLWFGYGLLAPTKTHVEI
- assay name: Displacement of [125I]neurokinin A from human NK2 receptor expressed in CHOK1 cells
- Assay type: cell-based, CHO-K1
Could you please report measured Ki for the items listed next?

NS(=O)(=O)N1CCC(N[C@@H]2CC(=O)N[C@@H](Cc3c[nH]c4ccccc34)C(=O)N[C@@H](Cc3ccccc3)C(=O)N[C@H](Cc3ccccc3)CNC2=O)CC1; 50.1 pM (antagonist)

Now take the following molecule into account.
Problem: # input molecule: `O=C1C[C@@H](NC[C@H](O)[C@H](O)[C@@H](O[C@H]2O[C@H](CO)[C@@H](O[C@@H]3O[C@@H](CO)[C@H](O)[C@@H](O)[C@@H]3O)[C@H](O)[C@H]2O)[C@H](O)CO)C(=O)NC[C@@H](Cc2ccccc2)NC(=O)[C@H](Cc2ccccc2)NC(=O)[C@H](Cc2c[nH]c3ccccc23)N1` ; wanted: its Ki
Solution: 501 pM (antagonist)

Hello, the source for this data is ChEMBL document CHEMBL1149315, in case you need it.
